Sourced from patent US20030215462A1

Tested on: UGT enzymes of pooled human jejunum microsomes
Method description: Inhibition of estradiol (E2) glucuronidation in pooled human jejunum microsomes
Type: biochemical
Measurement context: jejunum HJ61; E2 50 μM; inhibitor 50 μM
Readout name: residual metabolism (% of control), E2-3-β-D-glucuronide

As a guide, the following entries are already answered.
O=C(O[C@@H]1Cc2c(O)cc(O)cc2O[C@H]1c1cc(O)c(O)c(O)c1)c1cc(O)c(O)c(O)c1 [Gallocatechin gallate] = 25 (1) %
O=C(O[C@@H]1Cc2c(O)cc(O)cc2O[C@@H]1c1cc(O)c(O)c(O)c1)c1cc(O)c(O)c(O)c1 [Epigallocatechin gallate] = 32 (0) %
O=c1c(O)c(-c2ccc(O)c(O)c2)oc2cc(O)cc(O)c12 = 29 (2) %

Consider now this further molecule.
Given the entry O=C(O[C@@H]1Cc2c(O)cc(O)cc2O[C@@H]1c1ccc(O)c(O)c1)c1cc(O)c(O)c(O)c1 [Epicatechin gallate] , what residual metabolism (% of control), E2-3-β-D-glucuronide was observed with UGT enzymes of pooled human jejunum microsomes?
26 (1) %

====

Target entity: UniProtKB Q9HAW8
Sequence (Q9HAW8 26-530): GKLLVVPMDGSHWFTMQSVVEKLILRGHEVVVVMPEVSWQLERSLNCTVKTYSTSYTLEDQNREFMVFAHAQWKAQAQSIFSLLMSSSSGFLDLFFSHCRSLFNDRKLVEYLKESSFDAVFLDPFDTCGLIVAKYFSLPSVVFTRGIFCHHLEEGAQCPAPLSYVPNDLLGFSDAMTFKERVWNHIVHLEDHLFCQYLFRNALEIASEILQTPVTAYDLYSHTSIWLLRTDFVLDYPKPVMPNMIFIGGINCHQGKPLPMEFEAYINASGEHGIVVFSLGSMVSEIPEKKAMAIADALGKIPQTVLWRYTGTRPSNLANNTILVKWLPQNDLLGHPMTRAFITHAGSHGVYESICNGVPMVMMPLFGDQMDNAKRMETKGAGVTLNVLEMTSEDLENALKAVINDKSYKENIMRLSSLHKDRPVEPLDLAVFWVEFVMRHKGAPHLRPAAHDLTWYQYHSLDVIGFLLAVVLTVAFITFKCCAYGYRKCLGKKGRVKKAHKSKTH
Method description: in vitro
Measurement context: pH 7.5, % of control metabolism, raloxifene G2
Readout name: activity at 15 min, 25 µM
Kindly write the number and append the unit.

# query: activity at 15 min, 25 µM of entry O=c1c(O)c(-c2ccc(O)c(O)c2)oc2cc(O)cc(O)c12 [Quercetin]
80%

====

System: UGT enzymes of human liver microsomes
Method description: Inhibition of 7-HFC glucuronidation in human liver microsomes
Format: biochemical
Measurement context: inhibitor 2000 μM; 7-HFC 50 μM, human liver microsomes 100 μg/ml, 15 min
Measured % of control metabolism (SD, n = 3), 7-HFC glucuronidation values are reported for all entries that follow.

O=C(O)c1ccccc1O = 35 (1) %

# query: % of control metabolism (SD, n = 3), 7-HFC glucuronidation of entry CC(=O)OC1CC(C)CCC1C(C)C (single isomer, unassigned; (-)) [(−)-Menthyl acetate]
26 (1) %

# query: % of control metabolism (SD, n = 3), 7-HFC glucuronidation of entry CCCOC(=O)c1cc(O)c(O)c(O)c1 [Propyl gallate]
32 (0) %

# query: % of control metabolism (SD, n = 3), 7-HFC glucuronidation of entry `CC(C)[C@@H]1CC[C@@H](C)C[C@H]1O`
53 (0) %

====

System: UGT enzymes of human liver microsomes
Construct: percentage of control metabolism, 7-HFC glucuronidation; percentage of control metabolism, 7-HFC glucuronidation
Method description: Inhibition of 7-HFC glucuronidation in human liver microsomes
Type: biochemical
Measurement context: inhibitor 200 μM
Readout name: percentage of control metabolism, 7-HFC glucuronidation

CCCCCCCCCCCCOC(=O)c1cc(O)c(O)c(O)c1 [Lauryl gallate] = 22 (1) %
O=C(O[C@@H]1Cc2c(O)cc(O)cc2O[C@H]1c1cc(O)c(O)c(O)c1)c1cc(O)c(O)c(O)c1 [Gallocatechin gallate] = 25 (0) %
O=C(O[C@@H]1Cc2c(O)cc(O)cc2O[C@@H]1c1cc(O)c(O)c(O)c1)c1cc(O)c(O)c(O)c1 [Epigallocatechin gallate] = 37 (2) %

Given the entry CC/C(=C(/CC)c1ccc(O)cc1)c1ccc(O)cc1 [Diethylstilbestrol, reference compound] , what percentage of control metabolism, 7-HFC glucuronidation was observed with UGT enzymes of human liver microsomes?
1 (0) %

Given the entry `CCCCC/C=C\C/C=C\CCCCCCCC(=O)O` , what percentage of control metabolism, 7-HFC glucuronidation was observed with UGT enzymes of human liver microsomes?
77 (4) %

Given the entry `CC1=C(/C=C/C(C)=C/C=C/C(C)=C/CO)C(C)(C)CCC1` , what percentage of control metabolism, 7-HFC glucuronidation was observed with UGT enzymes of human liver microsomes?
39 (1) %

Given the entry `Cc1ccc(C(C)C)cc1O` , what percentage of control metabolism, 7-HFC glucuronidation was observed with UGT enzymes of human liver microsomes?
63 (0) %
